# System: Balb/c mice
# testDetails: Prevention of concanavalin A liver injury
# Type: in vivo, mouse
# experimentalConditions: Mus musculus, po, 24 h, 10 mg/mL suspension at 10 mL/kg, 30 min prior to Con A, plasma 24 hr after Con A, read-out: Preventing rate against liver injury, ALT (%)
Counter-ions that a name gives are not always drawn.
Answer class 0 if inhibition in vivo at 10000 µg/mL, 100 mg/kg is under 50%, and class 1 if it is 50% or more.

compound=CC(C)(C)c1cc(-c2csc(NC(=O)c3cc([N+](=O)[O-])ccc3Cl)n2)cc(C(C)(C)C)c1O experimentalsystem="Balb/c mice" assignedclass="class 1"
compound=O=C(Nc1nccc2ccccc12)c1cc([N+](=O)[O-])ccc1Cl experimentalsystem="Balb/c mice" assignedclass="class 0"
compound=CCCCCc1ccc(NC(=O)c2cc([N+](=O)[O-])ccc2Cl)cc1 experimentalsystem="Balb/c mice" assignedclass="class 0"
compound=O=C(Nc1ccc(N2CCCCC2)cc1)c1cc([N+](=O)[O-])ccc1Cl experimentalsystem="Balb/c mice" assignedclass="class 0"
compound=O=C(Nc1nc(-c2ccccc2)cs1)c1cc([N+](=O)[O-])ccc1Cl experimentalsystem="Balb/c mice" assignedclass="class 0"
compound=O=C(Nc1nc(-c2cccnc2)cs1)c1cc([N+](=O)[O-])ccc1Cl experimentalsystem="Balb/c mice" assignedclass="class 0"
compound="Nc1ccc(-c2ccc(NC(=O)c3cc([N+](=O)[O-])ccc3Cl)cc2)cc1 [Example 88, mono-hydrochloride]" experimentalsystem="Balb/c mice" assignedclass="class 0"
compound=Cc1ccc2nc(-c3ccc(NC(=O)c4cc([N+](=O)[O-])ccc4Cl)cc3)sc2c1 experimentalsystem="Balb/c mice" assignedclass="class 1"
compound=O=C(Nc1ccc(C(=O)N2CCCCC2)cc1)c1cc([N+](=O)[O-])ccc1Cl experimentalsystem="Balb/c mice" assignedclass="class 1"
compound=N#Cc1ccc(NC(=O)c2cc([N+](=O)[O-])ccc2Cl)cc1 experimentalsystem="Balb/c mice" assignedclass="class 1"
compound=Cc1ccc(NS(=O)(=O)c2cccc(NC(=O)c3cc([N+](=O)[O-])ccc3Cl)c2)cc1 experimentalsystem="Balb/c mice" assignedclass="class 1"
compound=N=C(N)NS(=O)(=O)c1ccc(NC(=O)c2cc([N+](=O)[O-])ccc2Cl)cc1 experimentalsystem="Balb/c mice" assignedclass="class 1"
compound=CS(=O)(=O)Nc1ccc(NC(=O)c2cc([N+](=O)[O-])ccc2Cl)cc1 experimentalsystem="Balb/c mice" assignedclass="class 0"
compound=CC(=O)c1cccc(NC(=O)c2cc([N+](=O)[O-])ccc2Cl)c1 experimentalsystem="Balb/c mice" assignedclass="class 1"
compound=O=C(Nc1ccc(OC(F)(F)F)cc1)c1cc([N+](=O)[O-])ccc1Cl experimentalsystem="Balb/c mice" assignedclass="class 0"
compound=CC(C)(C)c1cc(NS(=O)(=O)c2cccc(NC(=O)c3cc([N+](=O)[O-])ccc3Cl)c2)cc(C(C)(C)C)c1O experimentalsystem="Balb/c mice" assignedclass="class 1"
compound=O=C(Nc1ccc(-c2ccccn2)cc1)c1cc([N+](=O)[O-])ccc1Cl experimentalsystem="Balb/c mice" assignedclass="class 1"

Recorded values, source patent US20030134859A1.
